Test system: E. coli NIHJ JC-2
assay remarks: Antibacterial spectra, agar dilution method
Type: cell-based
test context: Escherichia coli, NIHJJC2, read-out: Antibacterial spectra, E. coli NIHJ JC-2, tables in the Examples
endpoint name: MIC (µg/mL)

1. Cn1nnnc1SCC1=C(C(=O)O)N2C(=O)C(NC(=O)Cc3csc(N)n3)C2SC1 (stereo not shown) [Example 16] :: 0.39
2. Cc1nnc(SCC2=C(C(=O)O)N3C(=O)[C@@H](NC(=O)Cn4cnnn4)[C@H]3SC2)s1 [Cephazolin, reference compound] :: 1.56
3. O=C(Cc1cccs1)N[C@@H]1C(=O)N2C(C(=O)[O-])=C(C[n+]3ccccc3)CS[C@H]12 [Cephaloridine, reference compound] :: 6.25

###

Tested on: S. aureus 1840
assay remarks: Antibacterial spectra, agar dilution method
Assay type: cell-based
test context: Staphylococcus aureus, S. aureus 1840, Table 11, read-out: Antibacterial spectra
Source text: (mcg/ml., agar dilution method) (mcg/ml, agar dilution method) (mcg./ml., agar dilution method)
endpoint name: MIC

1) CN(C)CCNc1nnc(SCC2=C(C(=O)O)N3C(=O)C(NC(=O)Cc4csc(N)n4)C3SC2)s1 (centres unmarked) :: 3.13 µg/mL
2) CN(C)CC(=O)Nc1nnc(SCC2=C(C(=O)O)N3C(=O)C(NC(=O)Cc4csc(N)n4)C3SC2)s1 (centres unmarked) :: 3.13 µg/mL
3) Nc1nc(CC(=O)NC2C(=O)N3C(C(=O)O)=C(CSc4nnc(NCCS(=O)(=O)O)s4)CSC23)cs1 (centres unmarked) :: 3.13 µg/mL
4) Nc1nc(CC(=O)NC2C(=O)N3C(C(=O)O)=C(CSc4nnc(NCCO)s4)CSC23)cs1 (centres unmarked) :: 3.13 µg/mL
5) Nc1nc(CC(=O)NC2C(=O)N3C(C(=O)O)=C(CSc4nnc(CC(=O)O)s4)CSC23)cs1 (centres unmarked) :: 3.13 µg/mL

###

Tested on: K. pneumoniae DT
assay remarks: Antibacterial spectra, agar dilution method
Assay type: cell-based
test context: Klebsiella pneumoniae, tables in the Examples
# MIC per record follows
endpoint name: MIC

1) Cn1nnnc1SCC1=C(C(=O)O)N2C(=O)C(NC(=O)Cc3csc(=O)[nH]3)[C@H]2SC1 (stereo partly shown) [Example 2] :: < 0.78 µg/mL
2) Nc1nc(CC(=O)NC2C(=O)N3C(C(=O)O)=C(CSc4nncs4)CSC23)cs1 (stereo not shown) [Example 13] :: < 0.78 µg/mL
3) Cn1nnnc1SCC1=C(C(=O)O)N2C(=O)C(NC(=O)Cc3csc(N)n3)C2SC1 (stereo not shown) [Example 16] :: < 0.1 µg/mL
4) CC(=O)OCC1=C(C(=O)O)N2C(=O)C(NC(=O)Cc3csc(N)n3)C2SC1 (stereo not shown) [Example 10] :: < 0.78 µg/mL

###

Tested on: P. vulgaris Eb-58
assay remarks: Antibacterial spectra, agar dilution method
Format: cell-based
test context: Proteus vulgaris, EB58, tables in Examples 13 and 16
endpoint name: MIC

1) Nc1nc(CC(=O)NC2C(=O)N3C(C(=O)O)=C(CSc4nncs4)CSC23)cs1 (stereo not shown) [Example 13] :: < 0.78 µg/mL
2) O=C(Cc1cccs1)N[C@@H]1C(=O)N2C(C(=O)[O-])=C(C[n+]3ccccc3)CS[C@H]12 [Cephaloridine, reference compound] :: 12.5 µg/mL
3) Cc1nnc(SCC2=C(C(=O)O)N3C(=O)[C@@H](NC(=O)Cn4cnnn4)[C@H]3SC2)s1 [Cephazolin, reference compound] :: 6.25 µg/mL
4) Cn1nnnc1SCC1=C(C(=O)O)N2C(=O)C(NC(=O)Cc3csc(N)n3)C2SC1 (stereo not shown) [Example 16] :: 0.39 µg/mL

###

Recorded measurements of ED50, one per entry
Tested on: Escherichia coli 0111
assay remarks: Protective Effect on Infected Mice
Type: in vivo
test context: Escherichia coli, 0111, sc, 168 h, Table 13; male ICR/SLC mice; i.p. E. coli 0111; single subcutaneous dose immediately after challenge; 7 days; read-out: ED50
endpoint name: ED50

1) Nc1nc(CC(=O)NC2C(=O)N3C(C(=O)O)=C(CSc4nnc(SCCS(=O)(=O)O)s4)CSC23)cs1 (stereo not drawn) [Compound 12] :: < 0.625 mg/kg
2) CN(C)CCNc1nnc(SCC2=C(C(=O)O)N3C(=O)C(NC(=O)Cc4csc(N)n4)C3SC2)s1 (stereo not drawn) [Compound 18] :: < 0.625 mg/kg
3) O=C(Cc1cccs1)N[C@@H]1C(=O)N2C(C(=O)[O-])=C(C[n+]3ccccc3)CS[C@H]12 [Cephaloridine, reference compound] :: 1.94 mg/kg
4) NC(=O)CSc1nnc(SCC2=C(C(=O)[O-])N3C(=O)C(NC(=O)Cc4csc(N)n4)[C@H]3SC2)s1.[Na+] (stereo partly drawn) [Compound 16] :: < 0.625 mg/kg
5) Nc1nc(CC(=O)NC2C(=O)N3C(C(=O)O)=C(CSc4nnc(NCCO)s4)CSC23)cs1 (stereo not drawn) [Compound 17] :: < 0.625 mg/kg
6) Nc1nc(CC(=O)NC2C(=O)N3C(C(=O)O)=C(CSc4nnc(SCC(=O)O)s4)CSC23)cs1 (stereo not drawn) [Compound 15] :: < 0.625 mg/kg
